Target: T1, human VTCN1 expressed on cells (293-VTCN1 cells; SKBR3, MX-1 and ZR-75-1 cells that express it naturally) (human, UniProt Q7Z7D3 25-282)
T1 construct: The cDNA was bought from Origene
T1 sequence: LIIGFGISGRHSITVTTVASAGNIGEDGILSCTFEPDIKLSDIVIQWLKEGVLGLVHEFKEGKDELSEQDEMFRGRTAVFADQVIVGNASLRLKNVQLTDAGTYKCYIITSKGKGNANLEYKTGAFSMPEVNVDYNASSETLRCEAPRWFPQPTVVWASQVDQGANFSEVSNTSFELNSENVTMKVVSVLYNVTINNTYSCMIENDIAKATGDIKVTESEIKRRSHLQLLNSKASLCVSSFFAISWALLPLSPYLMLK
Test: flow cytometry, antibody titration on 293-huVTCN1 cells
testReadout: EC50 (nM)
Give your result in nM as a bare value.

Look over these answered cases.
>  <binder>
16H12_60B4 (antibody, V domains shown, Fully human antibody) VH: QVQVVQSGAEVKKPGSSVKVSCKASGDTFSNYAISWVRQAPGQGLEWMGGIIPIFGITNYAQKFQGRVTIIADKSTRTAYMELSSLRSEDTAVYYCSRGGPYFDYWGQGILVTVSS VL: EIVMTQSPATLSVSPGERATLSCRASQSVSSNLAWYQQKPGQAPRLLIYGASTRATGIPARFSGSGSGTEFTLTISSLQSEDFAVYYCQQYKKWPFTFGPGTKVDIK

>  <testReadout>
EC50

>  <measuredValue>
1.7

$$$$
>  <binder>
12B5_44B1 (antibody, V domains shown, Fully human antibody) VH: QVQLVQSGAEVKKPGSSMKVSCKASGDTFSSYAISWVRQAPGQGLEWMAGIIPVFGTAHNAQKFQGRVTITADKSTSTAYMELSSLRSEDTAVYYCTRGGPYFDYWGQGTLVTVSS VL: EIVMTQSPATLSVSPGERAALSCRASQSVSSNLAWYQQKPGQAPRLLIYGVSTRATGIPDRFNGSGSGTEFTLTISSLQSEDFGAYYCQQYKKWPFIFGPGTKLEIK

>  <testReadout>
EC50

>  <measuredValue>
9

$$$$

# context switch: different binder, same EC50
Query :: Which measured EC50 value corresponds to 13H9_44D2 (antibody, V domains shown, Fully human antibody) VH: QVQLQESGPGLVKPSETLSLTCTVSGGSISSYYWSWIRQPPGKGLEWIGYIYYSGSTNNNPSLKSRVTISVDTSKNQFSLKLISVTAADTAVYYCARVYNNYDWGFDYWGQGTLVTVSS VL: EIVMTQSPATLSVSPGERATLSCRASQSVSSNLAWYQQKPGQAPRLLIYGASTRATGIPARFSGSGSGTEFTLTIRSLQSEDFAVYYCQQYHNWPLTFGGGTKLEIK ?
Result :: 1.2
